Measured GI50 accompanies every entry in the list below.
System: UACC-257
Experiment: NCI tumour cell line growth inhibition, 48 h
Activity calls are given as the source filed them. No stated cut-off is given here; in the data, active = GI50 up to about 1.1 µM and inactive = higher.

The following compounds have reported results that may help.
[
  {
    "Compound": "Cc1c(CN2CCN(C)CC2)c(CN2CCN(C)CC2)c(C)n1-c1ccc(Cl)cc1",
    "GI50": "14.2 µM (inactive)"
  },
  {
    "Compound": "Cc1cc(C)c2c(=N)c3ccccc3n(CCCCCCO)c2n1",
    "GI50": "4.75 µM (inactive)"
  },
  {
    "Compound": "Cc1ccc(NC(=O)CC2C(=O)Nc3ccccc3S2(=O)=O)cc1C (stereo unspecified)",
    "GI50": "> 100 µM (inactive)"
  },
  {
    "Compound": "Cc1cc(Cc2cc(Cc3cc(C)cc(C(C)(C)C)c3O)c(C)cc2C)c(O)c(C(C)(C)C)c1",
    "GI50": "16.2 µM (inactive)"
  },
  {
    "Compound": "C/C(=N\\Nc1nc2ccccc2n1C)c1ccc2ccccc2n1",
    "GI50": "4.36 µM (inactive)"
  }
]

May I ask what GI50 has been recorded for NS(=O)(=O)c1cc(Cl)c(NC(=S)NC(=O)Nc2ccc(Cl)c(Cl)c2)c(Cl)c1 ? 29.9 µM (inactive)

May I ask what GI50 has been recorded for Cn1c(=O)n(C2(C)CSC2)c2ccccc21 ? > 100 µM (inactive)

May I ask what GI50 has been recorded for O=c1oc2ccccc2cc1-c1csc(Nc2ccc(F)cc2)n1 ? 14.8 µM (inactive)

* * *

Tested on: NCI-H23
Assay: NCI tumour cell line growth inhibition, 48 h
Calls of active or inactive are those of the source. Cut-off read from the data, not from the text of the source: active = GI50 up to about 1.1 µM and inactive = higher.
Form entry, call: pick from active, inactive

Look over these answered cases.
[
  {
    "Compound": "O=c1ccccc2cccc(O)c12",
    "Measured Target": "NCI-H23",
    "Assigned Class": "inactive"
  },
  {
    "Compound": "CCOC(=O)C1=C(C)N(C)C23OC4(C(=O)OC)CC2c2ccccc2C1N3C4=O (stereo not given)",
    "Measured Target": "NCI-H23",
    "Assigned Class": "inactive"
  },
  {
    "Compound": "CC(=O)Oc1ccc(/C=C/C(=O)OCCOC(=O)/C=C/c2ccc(OC(C)=O)c(OC(C)=O)c2)cc1OC(C)=O",
    "Measured Target": "NCI-H23",
    "Assigned Class": "inactive"
  },
  {
    "Compound": "COCN1C(=O)[C@@H]2CCCN2C(=O)c2cc([N+](=O)[O-])ccc21",
    "Measured Target": "NCI-H23",
    "Assigned Class": "inactive"
  },
  {
    "Compound": "CCCCCCCCCCCCCCCC(=O)OCCOCCOCCOCCOCCOC(=O)CCCCCCCCCCCCCCC",
    "Measured Target": "NCI-H23",
    "Assigned Class": "inactive"
  }
]

Then there is this compound:
Tell me the recorded outcome of this test for COc1cc([C@H]2c3cc4c(cc3O[C@@]3(O)COC(=O)[C@@H]23)OCO4)cc(OC)c1OC . inactive

* * *

Tested on: SF-539
Assay: NCI tumour cell line growth inhibition, 48 h
Calls of active or inactive are those of the source. Cut-off read from the data, not from the text of the source: active = GI50 up to about 1.1 µM and inactive = higher.
Form entry, call: pick from Yes (active), No (inactive)

[
  {
    "Compound": "CS(=O)(=O)OCCN(CCOS(C)(=O)=O)c1ccc(/C=N/c2ccc(-c3csc(Cc4ccccc4)n3)cc2)c(Cl)c1",
    "Assigned Class": "No"
  },
  {
    "Compound": "O=C1OC(c2ccc(Cl)cc2)=N/C1=C\\c1ccccc1",
    "Assigned Class": "No"
  },
  {
    "Compound": "O=C(NNS(=O)(=O)c1ccccc1)c1csc(NC(=S)NC2CCCCC2)n1",
    "Assigned Class": "No"
  },
  {
    "Compound": "CC(=O)Oc1ccc(/C=C/C(=O)OCCOC(=O)/C=C/c2ccc(OC(C)=O)c(OC(C)=O)c2)cc1OC(C)=O",
    "Assigned Class": "No"
  },
  {
    "Compound": "BrCC(Br)(c1ccccc1)c1ccccc1-c1cc(-c2ccccc2)cc(-c2ccccc2)n1 (stereo not drawn)",
    "Assigned Class": "No"
  },
  {
    "Compound": "COC(=O)c1cc(C(=CCC[C@H]2CC[C@@]3(C)C(CCC4C3CC[C@@]3(C)C4CC[C@@H]3C(C)CCCC(C)C)C2)c2cc(Cl)c(OC(=O)c3ccccc3)c(C(=O)OC)c2)cc(Cl)c1OC(=O)c1ccccc1 (stereo partly drawn)",
    "Assigned Class": "No"
  }
]

Tell me the recorded outcome of this test for CC1=CC(=O)[C@@H](O)[C@]2(C)[C@H]3[C@@]4(O)OC[C@]35[C@H]([C@@H](C)[C@H]4O)[C@@H](OC(=O)C(C)(C)CO)C(=O)O[C@@H]5C[C@@H]12 . Yes

Tell me the recorded outcome of this test for C=CCn1c(=O)ccn(COCCO)c1=O . No

Tell me the recorded outcome of this test for Brc1ccc(N2C[N+](c3ccc(Br)cc3)=NC(c3ccccc3)=N2)cc1.[O-][Cl+3]([O-])([O-])[O-] . No

Tell me the recorded outcome of this test for CC(C)=CCC/C(C)=C/CC/C(C)=C/CSc1ccccc1C(=O)O . No

Tell me the recorded outcome of this test for CN(C)CCNC(=O)Cc1ccccc1Nc1c(Cl)cccc1Cl . No

Tell me the recorded outcome of this test for CN(C)c1n/c(=N/Cc2cccs2)ss1 . No

Tell me the recorded outcome of this test for CCNC(C)(C)C(SS)c1ccc(Br)cc1 (stereo not drawn) . No

Tell me the recorded outcome of this test for c1ccc2sc(C3(N4CCCCC4)CCCCCC3)cc2c1 . No

Tell me the recorded outcome of this test for COc1cc(C[C@H]2c3cc(OC)c(OC)cc3CCN2C)c(Oc2cc3c(cc2OC)-c2c(OC)c(OC)cc4c2[C@H](C3)N(C)CC4)cc1OC . No

Tell me the recorded outcome of this test for c1cc(-c2cscc2-c2ccsc2)cs1 . No

Tell me the recorded outcome of this test for O=C1SC(c2ccc(Cl)cc2)(c2ccc(Cl)cc2)c2ccccc21 . No

Tell me the recorded outcome of this test for CN(C)CN1C(=O)S/C(=C2\C(=O)N(CN(C)C)c3ccccc32)C1=O . No

* * *

Tested on: SNB-19
Test: NCI tumour cell line growth inhibition, 48 h
Activity calls are given as the source filed them. Cut-off read from the data, not from the text of the source: active = GI50 up to about 1.1 µM and inactive = higher.
Measured GI50 accompanies every entry in the list below.

The following molecules have reported results that may help.
[
  {
    "Molecule": "CC(OC(C)(C)C)[C@H](NC(=O)OC(C)(C)C)C(=O)O (stereo partly specified)",
    "Measured Target": "SNB-19",
    "Result": "> 100 µM (inactive)"
  },
  {
    "Molecule": "O=C(O)c1cc2ccccc2oc1=O [COUMARIN-3-CARBOXYLIC ACID]",
    "Measured Target": "SNB-19",
    "Result": "> 100 µM (inactive)"
  },
  {
    "Molecule": "COC(=O)c1cc(OC)c(OC)c(OC)c1-c1cc2c(cc1C=O)OCO2",
    "Measured Target": "SNB-19",
    "Result": "> 10 µM (inactive)"
  },
  {
    "Molecule": "C=CC1(CC)/C(=N\\O)C(CC)(CC)C(=O)N1O (stereo unspecified)",
    "Measured Target": "SNB-19",
    "Result": "> 100 µM (inactive)"
  },
  {
    "Molecule": "CSC1=NC(C(N)=O)C(N)N1C (stereo unspecified)",
    "Measured Target": "SNB-19",
    "Result": "> 100 µM (inactive)"
  },
  {
    "Molecule": "CN(C)CCNC(=O)Cc1ccccc1Nc1c(Cl)cccc1Cl",
    "Measured Target": "SNB-19",
    "Result": "17.2 µM (inactive)"
  },
  {
    "Molecule": "O=NN(CCCl)C(=O)N[C@H]1CC[C@H](C(=O)O)CC1",
    "Measured Target": "SNB-19",
    "Result": "> 61.1 µM (inactive)"
  },
  {
    "Molecule": "O=C1C(=C(C(=O)c2ccccc2)C(=O)c2ccccc2)OC(c2ccccc2)=C1C(=O)c1ccccc1",
    "Measured Target": "SNB-19",
    "Result": "10.2 µM (inactive)"
  },
  {
    "Molecule": "O=c1ccn([C@H]2CSC[C@@H](CO)C2)c(=O)[nH]1",
    "Measured Target": "SNB-19",
    "Result": "> 100 µM (inactive)"
  },
  {
    "Molecule": "N/C(CSCCSC/C(N)=N/O)=N\\O",
    "Measured Target": "SNB-19",
    "Result": "> 100 µM (inactive)"
  }
]

The record that follows has no GI50 shown yet.
May I ask what GI50 has been recorded for Cc1cccc(Nc2nn3c(=O)c4c5c(sc4nc3s2)CCCC5)c1 ? > 100 µM (inactive)
